Assign IC50, HEK-293 CAGA-Luc TGF-β reporter assay, stimulation with 10 pM TGF-β3 to each entry below.
biological target: TGF-β type II receptor (TβRII) on HEK-293 CAGA-Luc TGF-β reporter cells (UniProt P37173 23-567, limits assumed); experiment: cell-based or functional assay
Sequence (P37173 23-567 limits assumed): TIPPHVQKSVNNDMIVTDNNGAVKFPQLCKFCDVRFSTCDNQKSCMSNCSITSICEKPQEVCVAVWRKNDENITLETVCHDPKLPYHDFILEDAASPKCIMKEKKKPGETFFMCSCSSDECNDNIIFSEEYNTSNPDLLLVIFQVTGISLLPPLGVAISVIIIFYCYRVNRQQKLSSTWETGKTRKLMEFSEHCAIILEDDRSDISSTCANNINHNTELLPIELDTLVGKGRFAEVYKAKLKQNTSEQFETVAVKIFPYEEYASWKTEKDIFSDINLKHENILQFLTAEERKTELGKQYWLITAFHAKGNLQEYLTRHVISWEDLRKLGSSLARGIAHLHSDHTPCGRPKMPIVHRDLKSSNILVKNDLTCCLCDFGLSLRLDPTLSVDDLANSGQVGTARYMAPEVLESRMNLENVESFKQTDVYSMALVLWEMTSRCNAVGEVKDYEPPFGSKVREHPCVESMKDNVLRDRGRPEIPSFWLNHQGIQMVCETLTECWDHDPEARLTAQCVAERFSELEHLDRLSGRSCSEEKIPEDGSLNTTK
Respond numerically; units are nM and should not be typed.

IC50, HEK-293 CAGA-Luc TGF-β reporter assay, stimulation with 10 pM TGF-β3 measured on mmTGF-β2-2M-Del7-16 (ligand) ALDAAYVFRNVQDNCALRPLYIDFRRDLGWKWIHEPKGYNANFCAGACPYRASKSPSCVSQDLEPLTILYYIGRTPKIEQLSNMIVKSCKCS = 111

IC50, HEK-293 CAGA-Luc TGF-β reporter assay, stimulation with 10 pM TGF-β3 measured on mmTGF-β2-7M2R (ligand) ALDAAYCFRNVQDNCCLRPLYIDFRKDLGWKWIHEPKGYNANFCAGACPYRASKSPRCRSQDLEPLTIVYYVGRKPKVEQLSNMIVKSCKCS = 53.3

IC50, HEK-293 CAGA-Luc TGF-β reporter assay, stimulation with 10 pM TGF-β3 measured on mmTGF-β2-7M (ligand, also called engineered human TGF-β2 monomer mmTGF-β2-7M; mmTGF-B27M) ALDAAYCFRNVQDNCCLRPLYIDFRKDLGWKWIHEPKGYNANFCAGACPYRASKSPSCVSQDLEPLTIVYYVGRKPKVEQLSNMIVKSCKCS = 58.2

IC50, HEK-293 CAGA-Luc TGF-β reporter assay, stimulation with 10 pM TGF-β3 measured on mmTGF-β2-7M-PRDC (ligand) KEVLASSQEALVVTERKYLKSDWCKLRPLYIDFRKDLGWKWIHEPKGYNANFCYGQCNSFYIPRHVKKEEDSFQSSAFCVSQDLEPLTIVYYVGRKPKVEQLSNMIVKSCRCMSV = 282
